# target_under_test: 5-hydroxytryptamine receptor 7 (Homo sapiens, UniProt P34969)
# Sequence (P34969 whole entry): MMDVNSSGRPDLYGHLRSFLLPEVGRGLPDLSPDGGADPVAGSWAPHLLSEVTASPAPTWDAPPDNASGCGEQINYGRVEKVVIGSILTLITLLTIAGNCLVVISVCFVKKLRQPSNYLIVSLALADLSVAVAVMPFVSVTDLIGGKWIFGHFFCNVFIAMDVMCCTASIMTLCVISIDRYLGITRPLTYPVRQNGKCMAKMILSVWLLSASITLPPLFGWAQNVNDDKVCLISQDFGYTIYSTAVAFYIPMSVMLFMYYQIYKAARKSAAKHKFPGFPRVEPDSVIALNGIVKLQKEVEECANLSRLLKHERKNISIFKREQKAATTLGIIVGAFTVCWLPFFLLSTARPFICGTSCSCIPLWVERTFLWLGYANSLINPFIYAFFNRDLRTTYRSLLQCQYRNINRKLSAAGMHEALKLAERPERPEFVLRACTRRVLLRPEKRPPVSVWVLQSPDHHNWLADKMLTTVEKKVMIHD
# test_summary: Displacement of [3H]LSD from human 5HT7 receptor expressed in CHO cells
pIC50: −log10 of the molar value.
pIC50: recorded values
observable: pIC50

1. O=C1C[C@@H](c2ccccc2)Oc2cc(O[C@@H]3O[C@H](C(=O)O)[C@@H](O)[C@H](O)[C@H]3O)c(O)c(O)c21 [DIHYDROBAICALIN]	3.75
2. O=C(O)[C@H]1O[C@@H](Oc2cc3oc(-c4ccc(O)cc4)cc(=O)c3c(O)c2O)[C@H](O)[C@@H](O)[C@@H]1O	4.20
3. O=C(O)[C@H]1O[C@@H](Oc2cc3oc(-c4ccccc4O)cc(=O)c3c(O)c2O)[C@H](O)[C@@H](O)[C@@H]1O [IKONNIKOSIDE I]	3.87

----------
IC50: recorded values
# target_under_test: UniProt P34969
# test_summary: Displacement of [3H]LSD from human 5HT7 receptor expressed in CHO cells
observable: IC50

1) COc1c(O)cc(O)c2c(=O)cc(-c3ccccc3)oc12 [WOGONIN]	> 350 µM
2) O=c1cc(-c2ccccc2)oc2cc(O)c(O)c(O)c12 [BAICALEIN]	> 350 µM
3) O=C(O)[C@H]1O[C@@H](Oc2cc3oc(-c4ccccc4)cc(=O)c3c(O)c2O)[C@H](O)[C@@H](O)[C@@H]1O [BAICALIN]	> 200 µM

The values you see were collected from ChEMBL document CHEMBL1159364.
